Each recorded value in this set is attributed to ChEMBL document CHEMBL5579819.

Tested on: U-937
assayProtocol: Cytotoxicity against human U-937 cells
Format: functional, cell-based
metric: IC50 (nM)
Please respond with the number in nM and leave the unit unwritten.

Enquiry: Answer with IC50 of COc1cc2c(cc1OCc1ccc(C(=O)Nc3ccccc3N)cc1)CC[C@@H]1[C@@H]2CC[C@]2(C)[C@@H](O)CC[C@@H]12 measured for U-937.
Return: 371

---

assayProtocol: Selectivity index, ratio of CC50 for cytotoxicity against African green monkey Vero cells to IC50 for cytotoxicity against human HepG2 cells
Format: toxicity, cell-based
assayContext: Vero cells (CC50) and HepG2 cells (IC50)
metric: selectivity ratio

Enquiry: Dear colleague, please send me the reported selectivity ratio for CN(C)c1ccc(/C=N/c2c(N)n(C)c(=O)[nH]c2=O)cc1 when you can.
Return: 3.74

---

assayProtocol: AUC (0 to t) in BALB/c mouse at 50 mg/kg, po measured for 24 hrs by LC-MS/MS analysis
Type: ADME, organism-based
assayContext: in vivo
metric: AUC(0-t) at 24 h (ng·h/mL)
Please respond with the number in ng·h/mL and leave the unit unwritten.

Enquiry: Dear colleague, please send me the reported AUC(0-t) at 24 h for CCOC(=O)Nc1nc2ccc(-c3cc(Cc4n[nH]c(=O)c5ccccc45)ccc3F)cc2[nH]1 when you can.
Return: 87600

---

System: HeLa
assayProtocol: Cytotoxicity against human HeLa cells assessed as reduction in cell viability measured for 48 hrs by MTT assay
Format: functional, cell-based
metric: pIC50
// field semantics: pIC50 = negative decimal log of concentration (mol/L)

Enquiry: Dear colleague, please send me the reported pIC50 for COc1cc2oc(C(=O)c3cc(OC)c(OC)c(OC)c3)cc2cc1/C=C/C(=O)O when you can.
Return: 5.97

---

System: MCF7
assayProtocol: Cytotoxicity against human MCF7 cells assessed as reduction in cell growth incubated for 24 hrs by MTT assay
assayContext: MCF7, 24 h
metric: IC50 (µM)
Please respond with the number in µM and leave the unit unwritten.

Enquiry: Dear colleague, please send me the reported IC50 for O=C1Nc2ccccc2/C1=C/c1ccc(OCC(=O)c2ccc(Br)cc2)cc1 when you can.
Return: 14.8

---

Test system: MCF7
assayProtocol: Cytotoxicity against human MCF7 cells assessed as reduction in cell viability incubated for 24 hrs by MTT assay
Type: functional, cell-based
assayContext: MCF7, 24 h
metric: IC50 (µM)
Please respond with the number in µM and leave the unit unwritten.

Enquiry: Dear colleague, please send me the reported IC50 for CCOCCSc1nc(-c2ccccc2Cl)nn1CCOCC when you can.
Return: 5.16

---

measuredOn: Tubulin
assayProtocol: Inhibition of tubulin polymerization (unknown origin) by fluorescence based assay
metric: pIC50
// field semantics: pIC50 = negative decimal log of concentration (mol/L)

Enquiry: Dear colleague, please send me the reported pIC50 for COc1cc(OC)c(/C=C2/C(=O)Nc3cc(Cl)ccc32)c(OC)c1 when you can.
Return: 5.78
